system: RARa:RXR (NR concentration 270 nM, RXRa partner concentration 90 nM); assay: PBM binding z-score (relative to random genomic background probes); higher = stronger binding; sequences stand for … in GC…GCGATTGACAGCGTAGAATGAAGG
Parameter threshold = 2. Response is label 1 when PBM binding z-score meets or exceeds it, else label 0.

Construct sequence	Subject of test	Assigned label
CCGACTGGGGCATAAGGTGACCATAAGCCAGCCC	RARa:RXR (NR concentration 270 nM, RXRa partner concentration 90 nM)	label 0
ACTAGCAGGCTAAGGGTCACTCAAGATTAGTCCG	RARa:RXR (NR concentration 270 nM, RXRa partner concentration 90 nM)	label 1
CGTCCAAGGTCAGCTGGTCAGTGAAAGCGACGTG	RARa:RXR (NR concentration 270 nM, RXRa partner concentration 90 nM)	label 1
TAGCCTAGGTCAGATCGGGCCAGTACACGCTATA	RARa:RXR (NR concentration 270 nM, RXRa partner concentration 90 nM)	label 0
CGTCAGAGTTCAAGGTAACGTAACAGAAAGCAGC	RARa:RXR (NR concentration 270 nM, RXRa partner concentration 90 nM)	label 1

Could you verify whether the entry `ACCGAAAGGTCGAAGGTGAGTATACCCACCCGAA` shows PBM binding z-score of no less than 2? label 1

Could you verify whether the entry `CCAGACCGGTGAAAGGTAACTCAGTCTGGTACGC` shows PBM binding z-score of no less than 2? label 0

Could you verify whether the entry `CCTTACGGGTCAAGATTATAGCACGGGTGGTACG` shows PBM binding z-score of no less than 2? label 1

Could you verify whether the entry `TCTGCTAGGTGAGTTGGTCAGCTAACGAGCTGCC` shows PBM binding z-score of no less than 2? label 0

Could you verify whether the entry `CCGACTGCGGCAGAAAGGTTACCATACCATCCGG` shows PBM binding z-score of no less than 2? label 0

Could you verify whether the entry `ACTAGTTGGTCAGCTGAGGACACACACAATTCGG` shows PBM binding z-score of no less than 2? label 0

Could you verify whether the entry `TCGAGTAGGTTACCTATGGGGCATTCAGCTTTCT` shows PBM binding z-score of no less than 2? label 0

Could you verify whether the entry `AGAACGAGGCCACGCTGAGTTGATAGCAGAGTAG` shows PBM binding z-score of no less than 2? label 0

###

test system: PPARg:RXRa 90nM:30nM, anti-RXR (NR concentration 90 nM, RXRa partner concentration 30 nM); assay: PBM binding z-score (relative to random genomic background probes); higher = stronger binding; sequences stand for … in GC…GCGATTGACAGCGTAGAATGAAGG
Parameter threshold = 3. Response is criterion met when PBM binding z-score meets or exceeds it, else criterion not met.

Reference set (5 entries):
Construct sequence	Assigned label
CGAACTAGGTCAAGGACAATGAATCTCCGCACGC	criterion met
GCGACTGGGGCAAAGCAGGATACCATAAGGTTGG	criterion not met
CCTTACGGGTCACGAGGTTAAAGCACGACGAGCG	criterion met
CCTACTGGGCCACGAAAGGTCATGGATTCAGTGA	criterion met
CCTGCTGGGCCAAAAAGGTCATTGATGCCGATAA	criterion not met

Could you verify whether the entry `ATCTCTAGGTAAAAGTTCAGTGCATCCCGAGGAT` shows PBM binding z-score of no less than 3? criterion met

Could you verify whether the entry `TCTAGCAGGCCAGAGCGTCACTCAAGAGGTACGG` shows PBM binding z-score of no less than 3? criterion not met

Could you verify whether the entry `AATACAAGGTCACTAGGCCAGAGTAGGTACGAAT` shows PBM binding z-score of no less than 3? criterion met

Could you verify whether the entry `TCGAGTAGGTTACCAAGGGGGCATTCAGCTTTCT` shows PBM binding z-score of no less than 3? criterion not met
